Reference for the values: patent US7794991B2

So I've got a bunch of molecules here, and I need their Ratio (−/+stemphone C) of MIC values.
Test system: MRSA
assay.name: Enhancing activity against various antimicrobial agents by broth microdilution method (MIC)
Format: cell-based, Staphylococcus aureus
details: MIC alone / MIC with stemphone C 16 μg/ml; fold enhancement

Just so you know, measured Ratio (−/+stemphone C) of MIC for `CN[C@H](CC(C)C)C(=O)N[C@H]1C(=O)N[C@@H](CC(N)=O)C(=O)N[C@H]2C(=O)N[C@H]3C(=O)N[C@H](C(=O)N[C@H](C(=O)O)c4cc(O)cc(O)c4-c4cc3ccc4O)[C@H](O)c3ccc(c(Cl)c3)Oc3cc2cc(c3O[C@@H]2O[C@H](CO)[C@@H](O)[C@H](O)[C@H]2O[C@H]2C[C@](C)(N)[C@H](O)[C@H](C)O2)Oc2ccc(cc2Cl)[C@H]1O` came out at 1

Measured Ratio (−/+stemphone C) of MIC of `[H]/N=C(/N)N[C@H]1[C@H](O)[C@@H](O)[C@H](O[C@@H]2O[C@@H](C)[C@](O)(C=O)[C@H]2O[C@@H]2O[C@@H](CO)[C@H](O)[C@@H](O)[C@@H]2NC)[C@@H](N/C(N)=N\[H])[C@@H]1O` : 4

`C[C@@H](O)[C@H]1C(=O)N2C(C(=O)O)=C(SCCN=CN)C[C@H]12` has a reported Ratio (−/+stemphone C) of MIC of 512

What the record says about `Cc1nnc(SCC2=C(C(=O)O)N3C(=O)[C@@H](NC(=O)Cn4cnnn4)[C@H]3SC2)s1` : Ratio (−/+stemphone C) of MIC is 16

Ratio (−/+stemphone C) of MIC reading for `CN(C)[C@@H]1C(O)=C(C(N)=O)C(=O)[C@@]2(O)C(O)=C3C(=O)c4c(O)cccc4[C@@](C)(O)[C@H]3C[C@@H]12` : 1

Query `Cc1onc(-c2ccccc2Cl)c1C(=O)N[C@@H]1C(=O)N2[C@@H]1SC(C)(C)[C@@H]2C(=O)O` yields Ratio (−/+stemphone C) of MIC of 512
